# Tested on: K562 CRISPRi cells
# assay procedure: Constant region variant library pooled growth screen, K562
# Assay type: cell-based, human
# cond: sgRNA constant region variants; relative to the original, un-modified constant region cr995 (= 1)
Give measured Mean relative activity for each item. Keep answers brief.

Consider the following illustrative entries.
{"molecule": "cr898 (nucleic acid, listed as DNA, chemistry not fully specified) guide: GTTTAAGAGCTAAGCTGGAAACAGCATAGCACGTTTAAATAAGGCTAGTCCGTTATCAACTTGAGAAAGTGGCACCGAGTCGGTGCT", "measured property": "Mean relative activity", "result": 1.014}
{"molecule": "cr715 (nucleic acid, listed as DNA, chemistry not fully specified) guide: GTTTAAGAGCTAAGCTGGAAACAGCATAGCGAGTTTAAATAAGGCTAGTCCGTTATCAACTTGAAAAAGTGGCACCGAGTCGGTGCT", "measured property": "Mean relative activity", "result": 1.008}
{"molecule": "cr128 (nucleic acid, listed as DNA, chemistry not fully specified) guide: GTTTAAGAGCTAAGCTGGAAACAGCATAGCAAGTTTAAATAAGGCTAGTCCGTTATCAGCTTGAAAAAGCGGCACAGAGTCTGTGCT", "measured property": "Mean relative activity", "result": 1.002}

Moving on to another molecule below.
*Q* Mean relative activity for cr354 (nucleic acid, listed as DNA, chemistry not fully specified) guide: GTTTAAGAGCTAAGCTGGAAACAGCATAGCAAGTTTAAATAAGGCTAGTCCGTTATCAGCTTGAAAAAGCGATACCGAGTCGGTATT ?
*A* 1.016
